Assay System: human α7-containing nAChRs (Homo sapiens, UniProt P36544)
Sequence (P36544 23-502 limits assumed): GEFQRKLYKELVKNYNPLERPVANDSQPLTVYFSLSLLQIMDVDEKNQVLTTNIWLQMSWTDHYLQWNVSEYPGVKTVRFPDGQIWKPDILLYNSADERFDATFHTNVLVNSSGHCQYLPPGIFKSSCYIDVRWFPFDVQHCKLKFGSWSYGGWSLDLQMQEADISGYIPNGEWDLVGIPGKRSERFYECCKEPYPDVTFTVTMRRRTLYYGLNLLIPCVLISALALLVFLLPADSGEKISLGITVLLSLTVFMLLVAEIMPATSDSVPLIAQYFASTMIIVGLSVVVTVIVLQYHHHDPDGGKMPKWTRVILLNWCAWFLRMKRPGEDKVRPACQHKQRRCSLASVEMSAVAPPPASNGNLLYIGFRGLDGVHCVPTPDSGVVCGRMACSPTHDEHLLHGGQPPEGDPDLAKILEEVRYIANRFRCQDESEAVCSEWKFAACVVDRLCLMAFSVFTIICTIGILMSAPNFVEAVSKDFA
Experimental Details: cell-based
Format: cell-based
Assay Conditions: SEM
Where a SMILES comes first, the peptide text is derived from it. Bridges are numbered along the chain shown (N, C = ends).
Measured Attribute: IC50 (µM)
Give the number; µM is assumed, so skip it.

Below: 5 compounds and their reported IC50.
CC[C@H](C)[C@@H]1NC(=O)[C@@H]2CSSC[C@H](NC(=O)CN)C(=O)N[C@@H](CSSC[C@@H](C(N)=O)NC(=O)[C@H](CC(C)C)NC(=O)[C@H](CC(=O)O)NC(=O)[C@@H]3CCCN3C(=O)[C@H](CC(N)=O)NC(=O)[C@H](CC(N)=O)NC(=O)[C@H](CC(C)C)NC1=O)C(=O)N[C@@H](CO)C(=O)N[C@@H](C)C(=O)N[C@@H](CCCNC(=N)N)C(=O)N1CCC[C@H]1C(=O)N1CCC[C@H]1C(=O)N2 [gTxIA[∇A5 A10L]] (H-GCCSARPPCILNNPDLC-NH2; disulfide 2-9, 3-17); 18
CC[C@H](C)[C@@H]1NC(=O)[C@H](CC(N)=O)NC(=O)[C@@H]2CCCN2C(=O)[C@H](CC(N)=O)NC(=O)[C@H](CC(N)=O)NC(=O)[C@H](C(C)C)NC(=O)[C@H](CCCNC(=N)N)NC(=O)[C@@H]2CSSC[C@H](NC(=O)CNC(=O)[C@@H](N)CO)C(=O)N[C@@H](CSSC[C@@H](C(N)=O)NC1=O)C(=O)N[C@@H](CO)C(=O)N[C@@H](CC(N)=O)C(=O)N1CCC[C@H]1C(=O)N[C@@H](C)C(=O)N2 [gLsIA, reference compound] (H-SGCCSNPACRVNNPNIC-NH2; disulfide 3-9, 4-17); 0.3
CC[C@H](C)[C@@H]1NC(=O)[C@@H]2CSSC[C@H](NC(=O)[C@@H](NC(=O)CN)CSSC[C@@H](C(N)=O)NC(=O)[C@H](CC(C)C)NC(=O)[C@H](CC(=O)O)NC(=O)[C@@H]3CCCN3C(=O)[C@H](CC(N)=O)NC(=O)[C@H](CC(N)=O)NC(=O)[C@H](CC(C)C)NC1=O)C(=O)N[C@@H](CO)C(=O)N[C@@H](CCCNC(=N)N)C(=O)N1CCC[C@H]1C(=O)N1CCC[C@H]1C(=O)N2 [rTxIA [A10L], reference compound] (H-GCCSRPPCILNNPDLC-NH2; disulfide 2-16, 3-8); 6
CC[C@H](C)[C@@H]1NC(=O)[C@@H]2CSSC[C@H](NC(=O)CN)C(=O)N[C@@H](CSSC[C@@H](C(N)=O)NC(=O)[C@H](CC(C)C)NC(=O)[C@H](CC(=O)O)NC(=O)[C@@H]3CCCN3C(=O)[C@H](CC(N)=O)NC(=O)[C@H](CC(N)=O)NC(=O)[C@H](CC(C)C)NC1=O)C(=O)N[C@@H](CO)C(=O)N[C@@H](CCCNC(=N)N)C(=O)N1CCC[C@H]1C(=O)N1CCC[C@H]1C(=O)N2 [gTxIA [A10L], reference compound] (H-GCCSRPPCILNNPDLC-NH2; disulfide 2-8, 3-16); 0.5
CC(C)[C@H](NC(=O)[C@@H]1CSSC[C@@H]2NC(=O)[C@@H](NC(=O)[C@@H](N)CO)CSSC[C@H](NC(=O)[C@H](C)NC(=O)[C@@H]3CCCN3C(=O)[C@H](CC(N)=O)NC(=O)[C@H](CCCNC(=N)N)NC(=O)[C@H](C)NC2=O)C(=O)N[C@@H](CCCNC(=N)N)C(=O)N[C@@H](Cc2c[nH]cn2)C(=O)N[C@@H](CC(N)=O)C(=O)N[C@@H](Cc2c[nH]cn2)C(=O)N2CCC[C@H]2C(=O)N1)C(N)=O [gAusIA] (H-SCCARNPACRHNHPCV-NH2; disulfide 2-9, 3-15); 47

Data request: Entry CC[C@H](C)[C@@H]1NC(=O)[C@@H]2CSSC[C@H](NC(=O)[C@@H](NC(=O)CN)CSSC[C@@H](C(N)=O)NC(=O)[C@H](CC(C)C)NC(=O)[C@H](CC(=O)O)NC(=O)[C@@H]3CCCN3C(=O)[C@H](CC(N)=O)NC(=O)[C@H](CC(N)=O)NC(=O)[C@H](CC(C)C)NC1=O)C(=O)N[C@@H](CO)C(=O)N[C@@H](C)C(=O)N[C@@H](CCCNC(=N)N)C(=O)N1CCC[C@H]1C(=O)N1CCC[C@H]1C(=O)N2 [rTxIA[∇A5 A10L]] (H-GCCSARPPCILNNPDLC-NH2; disulfide 2-17, 3-9) has what IC50?
Data returned: 39

Data request: Entry CC[C@H](C)[C@@H]1NC(=O)[C@H](CC(N)=O)NC(=O)[C@@H]2CCCN2C(=O)[C@H](CC(N)=O)NC(=O)[C@H](CC(N)=O)NC(=O)[C@H](C(C)C)NC(=O)[C@H](CCCNC(=N)N)NC(=O)[C@@H]2CSSC[C@H](NC(=O)[C@@H](NC(=O)CNC(=O)[C@@H](N)CO)CSSC[C@@H](C(N)=O)NC1=O)C(=O)N[C@@H](CO)C(=O)N[C@@H](CC(N)=O)C(=O)N1CCC[C@H]1C(=O)N[C@@H](C)C(=O)N2 [rLsIA, reference compound] (H-SGCCSNPACRVNNPNIC-NH2; disulfide 3-17, 4-9) has what IC50?
Data returned: 41

Data request: Entry CC(C)[C@H](NC(=O)[C@@H]1CSSC[C@H](NC(=O)[C@@H](N)CO)C(=O)N[C@H]2CSSC[C@H](NC(=O)[C@H](C)NC(=O)[C@@H]3CCCN3C(=O)[C@H](CC(N)=O)NC(=O)[C@H](CCCNC(=N)N)NC(=O)[C@H](C)NC2=O)C(=O)N[C@@H](CCCNC(=N)N)C(=O)N[C@@H](Cc2c[nH]cn2)C(=O)N[C@@H](CC(N)=O)C(=O)N[C@@H](Cc2c[nH]cn2)C(=O)N2CCC[C@H]2C(=O)N1)C(N)=O [rAusIA] (H-SCCARNPACRHNHPCV-NH2; disulfide 2-15, 3-9) has what IC50?
Data returned: 26
